# Test system: HuT78 (T-cell lymphoma) cells
# ASSAY DETAILS: MTT antiproliferative assay, HuT78
# Type: cell-based, human
# CONDITION SUMMARY: SI = IC50 MDCK1 / IC50 HuT78
Readings of SI (MDCK) HuT78 for the listed compounds
Give a plain numeric answer without units written out.

c1ccc2sc(-c3ccc(OCc4c[nH]nn4)cc3)nc2c1 [23a]
2.14
Fc1ccc2nc(-c3ccc(OCc4cn(Cc5ccccc5)nn4)c(F)c3)sc2c1 [25b]
2.6
COc1cc(-c2nc3ccc(C4=NCCCN4)cc3[nH]2)ccc1OCc1cn(Cc2ccccc2)nn1 [45c]
16.7
Fc1cc(-c2nc3ccc(C4=NCCCN4)cc3[nH]2)ccc1OCc1cn(Cc2ccccc2)nn1 [45b]
8.36

Switching to the query record.
**Query** Dear colleague, I am looking for the recorded SI (MDCK) HuT78 of the following compound: Fc1cc(-c2nc3ccccc3s2)ccc1OCc1c[nH]nn1 [23b]
**Result** 1.6

* * *

Each entry below carries its reported IC50.
# Test system: SW620 (colorectal adenocarcinoma, metastatic) cells
# ASSAY DETAILS: MTT antiproliferative assay, SW620
# Type: cell-based, human
# CONDITION SUMMARY: Homo sapiens, SW-620; 72 h, MTT, mean ± SD of three independent experiments; read-out: IC50 (µM) SW620
Value expressed in µM; do not type the unit.

**Query** Which IC50 is listed for COc1cc(-c2nc3ccc(C4=NCCCN4)cc3[nH]2)ccc1OCC(=O)c1ccccc1 [42c] ?
**Result** 29.8

**Query** Quick one: IC50 for COc1cc(-c2nc3ccc(C4=NCCCN4)cc3s2)ccc1OCc1ccccn1 [39c] ?
**Result** 34.2

**Query** What value of IC50 has been reported for the following compound? Cl.c1cc(-c2nc3ccc(C4=NCCN4)cc3s2)ccc1OCc1c[nH]nn1 [36a]
**Result** 5.6

**Query** Which IC50 value belongs to O=C(COc1ccc(-c2nc3ccc(C4=NCCCN4)cc3[nH]2)cc1F)c1ccccc1 [42b] ?
**Result** 92.7

**Query** Field request: IC50 | item: O=C(COc1ccc(-c2nc3ccc(C4=NCCCN4)cc3s2)cc1F)c1ccccc1 [38b]
**Result** 30.5

* * *

# Test system: HuT78 (T-cell lymphoma) cells
# ASSAY DETAILS: MTT antiproliferative assay, HuT78
# Assay type: cell-based, human
# CONDITION SUMMARY: SI = IC50 MDCK1 / IC50 HuT78
In this section we review reported SI (MDCK) HuT78 values for a set of compounds.
Give only the figure.

Observe how each entry below is paired with its result.
COc1cc(-c2nc3ccc(C4=NCCN4)cc3s2)ccc1OCc1c[nH]nn1.Cl [36c]
62.5
c1cc(-c2nc3ccc(C4=NCCN4)cc3[nH]2)ccc1OCc1cn(CCN2CCOCC2)nn1 [46a]
1.59
c1ccc(COc2ccc(-c3nc4ccc(C5=NCCCN5)cc4[nH]3)cc2)nc1 [43a]
3.5

**Query** Look at this compound and give its reported SI (MDCK) HuT78. COc1cc(-c2nc3ccc(C4=NCCCN4)cc3s2)ccc1OCc1ccccn1 [39c]
**Result** 7.87

* * *

The compounds listed here are annotated with their melting point.

O=C(COc1ccc(-c2nc3ccc(F)cc3s2)cc1)c1ccccc1 [16a]
164 to 167 °C
Cl.c1ccc(Cn2cc(COc3ccc(-c4nc5ccc(C6=NCCN6)cc5s4)cc3)nn2)cc1 [37a]
153 to 156 °C
Fc1cc(-c2nc3ccc(Cl)cc3s2)ccc1OCc1c[nH]nn1 [21b]
205 to 209 °C

**Query** # melting point lookup, item COc1cc(-c2nc3ccccc3s2)ccc1OCc1ccccn1 [20c]
**Result** 110 to 115 °C

**Query** For the compound O=C(COc1ccc(-c2nc3ccccc3s2)cc1F)c1ccccc1 [17b] , what melting point is on record?
**Result** 174 to 177 °C

**Query** Tell me the measured melting point of Fc1ccc2nc(-c3ccc(OCc4c[nH]nn4)c(F)c3)sc2c1 [22b] , please.
**Result** 177 to 180 °C

**Query** Recorded melting point for Fc1ccc2nc(-c3ccc(OCc4ccccn4)c(F)c3)sc2c1 [19b] , please?
**Result** 190 to 195 °C

**Query** Fill blank: measured melting point of the compound COc1cc(-c2nc3ccc(Cl)cc3s2)ccc1OCc1cn(Cc2ccccc2)nn1 [24c] is ____.
**Result** 190 to 193 °C

**Query** Bench note: what melting point did COc1cc(-c2nc3ccc(F)cc3s2)ccc1OCc1c[nH]nn1 [22c] show?
**Result** 196 to 199 °C

**Query** What value of melting point has been recorded for this entry: O=C(COc1ccc(-c2nc3ccc(Cl)cc3s2)cc1)c1ccccc1 [15a]
**Result** 192 to 195 °C
